- EXPERIMENTAL_SYSTEM: E-selectin (Homo sapiens)
- Construct: amino terminal lectin, EGF, and complement regulatory-like repeats (CR) 1 and 2
- Sequence (P16581 22-301): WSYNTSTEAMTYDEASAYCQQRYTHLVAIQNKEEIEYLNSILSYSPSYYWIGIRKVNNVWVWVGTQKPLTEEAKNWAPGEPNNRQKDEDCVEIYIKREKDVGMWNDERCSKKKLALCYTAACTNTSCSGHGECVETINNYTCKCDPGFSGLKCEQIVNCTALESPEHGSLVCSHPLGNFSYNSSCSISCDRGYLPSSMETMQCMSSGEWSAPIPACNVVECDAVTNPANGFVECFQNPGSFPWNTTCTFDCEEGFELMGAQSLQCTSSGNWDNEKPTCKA
- TEST_METHOD_NOTES: Cell-protein assay: inhibition of binding of HL60 cells (expressing sialyl-Lewis^x) to E-selectin
- EXPERIMENTAL_CONTEXT: HL60 cell binding to selectin fusion protein on magnetic beads
pIC50: −log10 of the molar value.
Lab note: compare pIC50 against 3. Equal or greater, write 1. Smaller, write 0.

Task: Does the compound O=C(O)Cc1cccc(-c2cc(C(=O)CSCc3cc(CSCC(=O)c4ccc(O[C@H]5O[C@H](CO)[C@@H](O)[C@H](O)[C@@H]5O)c(-c5cccc(CC(=O)O)c5)c4)cc(CSCC(=O)c4ccc(O[C@H]5O[C@H](CO)[C@@H](O)[C@H](O)[C@@H]5O)c(-c5cccc(CC(=O)O)c5)c4)c3)ccc2O[C@H]2O[C@H](CO)[C@@H](O)[C@H](O)[C@@H]2O)c1 [J] have recorded pIC50 that is 3 or more?
Result: 0

Task: Hello, I need to know if O=C(O)Cc1cccc(-c2cc(CCCCCCCc3ccc(O[C@H]4O[C@H](CO)[C@@H](O)[C@H](O)[C@@H]4O)c(-c4cccc(CC(=O)O)c4)c3)ccc2O[C@H]2O[C@H](CO)[C@@H](O)[C@H](O)[C@@H]2O)c1 [Compound A-7] has measured pIC50 not below 3. Thanks!
Result: 1

Task: Determine whether this compound has pIC50 no lower than 3: O=C(O)Cc1cccc(-c2cc(CCCCCc3ccc(O[C@H]4O[C@H](CO)[C@@H](O)[C@H](O)[C@@H]4O)c(-c4cccc(CC(=O)O)c4)c3)ccc2O[C@H]2O[C@H](CO)[C@@H](O)[C@H](O)[C@@H]2O)c1 [Compound A-5]
Result: 1

Task: Test whether the compound O=C(O)Cc1cccc(-c2cc(Cc3ccc(Cc4ccc(O[C@H]5O[C@H](CO)[C@@H](O)[C@H](O)[C@@H]5O)c(-c5cccc(CC(=O)O)c5)c4)cc3)ccc2O[C@H]2O[C@H](CO)[C@@H](O)[C@H](O)[C@@H]2O)c1 [B-p] records pIC50 of 3 or higher.
Result: 0

Task: Confirm if pIC50 reported for the compound O=C(O)Cc1cccc(-c2cc(Cc3cc(Cc4ccc(O[C@H]5O[C@H](CO)[C@@H](O)[C@H](O)[C@@H]5O)c(-c5cccc(CC(=O)O)c5)c4)cc(Cc4ccc(O[C@H]5O[C@H](CO)[C@@H](O)[C@H](O)[C@@H]5O)c(-c5cccc(CC(=O)O)c5)c4)c3)ccc2O[C@H]2O[C@H](CO)[C@@H](O)[C@H](O)[C@@H]2O)c1 [H] is 3 or above.
Result: 1

Task: Quick check: does O=C(O)COc1cccc(-c2cc(CCCCCCc3ccc(O[C@H]4O[C@H](CO)[C@@H](O)[C@H](O)[C@@H]4O)c(-c4cccc(OCC(=O)O)c4)c3)ccc2O[C@H]2O[C@H](CO)[C@@H](O)[C@H](O)[C@@H]2O)c1 [E] have pIC50 greater than or equal to 3?
Result: 0
